Assay: chemical genetic growth profiling, strain panel (AID 1159580);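 note: tested at 20 µM; growth read once vehicle control cultures reached saturation at 30 °C; 1 = growth at the plate median or of vehicle wells; lower values mean less growth of the strain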
Settings: S. cerevisiae deletion strains, growth OD, locus YCL011C, strain gbp2, active compounds read low
The whole screen tested about 5,500 compounds, of which about 2,000 (36%) were called active. Not shown: some 18% with an inconclusive outcome. The list shows a part of the results.
metric: normalized growth
Numbers only.

| compound | normalized growth |
| --- | --- |
| CC(C)(C)NCC(O)c1cc(O)cc(O)c1 (configuration not stated) | 0.985 |

// each listed compound needs a value for normalized growth
1. Cc1cc(C2CCCCC2)n(O)c(=O)c1
2. Cc1[nH]ccc2c1[nH]c1cc(=O)ccc12

Marked response:
1. 0.0616
2. 1

// batch mode: one normalized growth value per listed entry
1. COc1cc(O)c2c(=O)c(O)c(-c3ccc(O)c(O)c3)oc2c1
2. CC1O[C@@H](Oc2c(-c3ccc(O)c(O)c3)oc3cc(O)cc(O)c3c2=O)[C@H](O)[C@H](O)[C@H]1O (some centres not stated)

Marked response:
[0.803, 0.997]

For every item below, please supply its normalized growth.
1. COc1ccc(-c2cc(=O)c3c(O)cc(O[C@@H]4O[C@H](CO[C@H]5O[C@H](C)[C@@H](O)[C@H](O)[C@@H]5O)[C@@H](O)[C@H](O)[C@H]4O)cc3o2)cc1O
2. COc1ccc2c(c1)CCC1C2CC[C@@]2(C)C1CC[C@@H]2O (some centres not stated)
3. COc1ccc(-c2cc(=O)c3c(O)cc(O[C@H]4O[C@H](CO[C@@H]5O[C@@H](C)[C@H](O)[C@@H](O)[C@H]5O)[C@@H](O)[C@H](O)[C@H]4O)cc3o2)cc1
4. COC1=CC(=O)C(O)=C/C1=C\C=C\c1ccccc1
5. C[C@]12CCC3c4ccc(O)cc4CCC3C1C[C@@H](O)[C@@H]2O (some centres not stated)
6. NC(=O)c1ncn([C@@H]2O[C@H](CO)[C@@H](O)[C@H]2O)n1
7. COc1cccc2c(C)cc(=O)[nH]c12

Marked response:
1.01
0.813
1
0.0594
1.05
0.981
0.924

Can you give me normalized growth for all of these, one by one?
1. C[C@@H]1O[C@@H](OC[C@H]2OC(Oc3c(-c4ccc(OCCO)c(OCCO)c4)oc4cc(OCCO)cc(O)c4c3=O)[C@H](O)[C@@H](O)[C@@H]2O)[C@H](O)[C@H](O)[C@H]1O (some centres not stated)
2. CC(C)[N+](C)(CCC(C(N)=O)(c1ccccc1)c1ccccc1)C(C)C
3. COC(=O)[C@]1(C)CCC[C@]2(C)c3ccc(C(C)C)cc3C(=O)CC12 (some centres not stated)

Marked response:
[0.952, 0.966, 0.961]

Please state, for each entry, its recorded normalized growth.
1. CC(C)c1c(O)ccc2c1CCC1[C@@](C)(CO)CCC[C@]21C (some centres not stated)
2. CCCCCC(=O)Cc1cc(O)cc(O)c1C(=O)Oc1cc(CC(=O)CCCCC)c(C(=O)O)c(OC)c1
3. CC(C)N(CCC(C(N)=O)(c1ccccc1)c1ccccn1)C(C)C (configuration not stated)
4. C[C@]12C=CC(=O)C=C1CCC1C2[C@@H](O)C[C@@]2(C)C1CC[C@]2(O)C(=O)COP(=O)(O)O (some centres not stated)

Marked response:
1. 1.02
2. 0.933
3. 0.062
4. 1

Look at each compound and report its normalized growth.
1. O=C(O[C@@H]1Cc2c(O)cc(O)cc2O[C@@H]1c1cc(O)c(=O)c2c(O)c(O)cc([C@H]3Oc4cc(O)cc(O)c4C[C@H]3OC(=O)c3cc(O)c(O)c(O)c3)c2c1)c1cc(O)c(O)c(O)c1
2. COc1cc(OC)c2c(=O)c(O)c(-c3ccc(OC)c(OC)c3)oc2c1

Marked response:
1. 0.509
2. 0.916

Report normalized growth for every entry below.
1. CCCCCCC(C)OC(=O)COc1ccc(Cl)cc1Cl (configuration not stated)
2. CC(C)c1c(O)ccc2c1CCC1[C@@](C)(C=O)CCC[C@]21C (some centres not stated)
3. CNC(=O)Oc1cccc2c1OC(C)(C)O2
4. COc1ccccc1/C=C\C(=O)O

Marked response:
[0.987, 0.783, 1, 0.99]

Hey, quick one: what's normalized growth for each of these?
1. CCCCOc1cc(C(=O)NCCN(CC)CC)c2ccccc2n1
2. COC1=CC(=O)C(C(=O)c2ccccc2)=CC1=O

Marked response:
1. 0.987
2. 0.971

The values you see were collected from PubChem BioAssay AID1159580.
